B1: glmS ribozyme (parent)
chain: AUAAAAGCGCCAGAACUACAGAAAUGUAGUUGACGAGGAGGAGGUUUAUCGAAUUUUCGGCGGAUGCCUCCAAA

variants of: B1; test: self-cleavage kobs at 640 uM GlcN6P; higher = faster cleavage; RNA array; details: with glucosamine-6-phosphate
Fewer inactive variants are shown than the library holds.
Quick reference for self-cleavage kobs at 640 uM GlcN6P among some variants

{"columns": ["mutant", "self-cleavage kobs at 640 uM GlcN6P"],
 "data": [
  ["A14U U46C C70U", "0.000206 s⁻¹"]
]}

Please report the recorded self-cleavage kobs at 640 uM GlcN6P for A6U G29C U56A .
< 1e-05 s⁻¹

For the variant U31C G60A , what self-cleavage kobs at 640 uM GlcN6P is on record?
< 1e-05 s⁻¹

Give the measured self-cleavage kobs at 640 uM GlcN6P of G29C G40A U65G .
< 1e-05 s⁻¹

Please report the recorded self-cleavage kobs at 640 uM GlcN6P for A6U A36G .
< 1e-05 s⁻¹

Quick one: self-cleavage kobs at 640 uM GlcN6P for C16U G40C C50A C67G ?
< 1e-05 s⁻¹

I have this variant here, C50A C67U C70G , and I need its recorded self-cleavage kobs at 640 uM GlcN6P.
6.04e-05 s⁻¹

Can you share its self-cleavage kobs at 640 uM GlcN6P? I mean this variant: U54A C70G
0.00033 s⁻¹

Name the reported self-cleavage kobs at 640 uM GlcN6P value associated with the variant C16A G29C
0.000949 s⁻¹
